- test system: CD3ε homodimer protein (human, UniProt P07766 23-126, limits assumed)
- Sequence (P07766 23-126 limits assumed): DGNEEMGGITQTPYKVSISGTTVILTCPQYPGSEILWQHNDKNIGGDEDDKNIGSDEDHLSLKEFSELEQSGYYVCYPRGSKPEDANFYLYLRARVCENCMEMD
- assay notes: SPR, immobilized CD3ε homodimer;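 further: biacore T200 surface plasmon resonance at 25 °C, antibody variants flowed as analytes over amine-coupled CD3ε homodimer on a CM4 chip, variant binding amount divided by that of GLS3000 antibody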
metric: ratio of amounts bound (vs GLS3000)
No unit in the answer, please; the number alone is enough.

Here's what some known entries look like.
binder="GLS3000 N30T (antibody, name in Kabat numbering, V domains shown, one-arm format as m2) VH: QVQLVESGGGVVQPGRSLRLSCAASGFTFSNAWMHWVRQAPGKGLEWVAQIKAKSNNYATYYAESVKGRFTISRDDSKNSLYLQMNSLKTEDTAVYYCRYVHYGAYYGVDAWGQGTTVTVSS VL: DIVMTQSPLSLPVTPGEPASISCRSSQSLVHSNRTTYLHWYQQKPGQAPRLLIYKVSNRFSGVPDRFSGSGSGTDFTLKISRVEAEDVGVYYCGQGTQVPYTFGQGTKLEIK" assay_value=0.29
binder="GLS3000 Q90S (antibody, name in Kabat numbering, V domains shown, one-arm format as m2) VH: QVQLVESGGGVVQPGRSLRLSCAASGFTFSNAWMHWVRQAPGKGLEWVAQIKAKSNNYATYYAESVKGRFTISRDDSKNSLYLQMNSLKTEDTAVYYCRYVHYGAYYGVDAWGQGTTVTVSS VL: DIVMTQSPLSLPVTPGEPASISCRSSQSLVHSNRNTYLHWYQQKPGQAPRLLIYKVSNRFSGVPDRFSGSGSGTDFTLKISRVEAEDVGVYYCGSGTQVPYTFGQGTKLEIK" assay_value=0.73

Okay, next one:
Q. Tell me the measured ratio of amounts bound (vs GLS3000) of GLS3000 T92D (antibody, name in Kabat numbering, V domains shown, one-arm format as m2) VH: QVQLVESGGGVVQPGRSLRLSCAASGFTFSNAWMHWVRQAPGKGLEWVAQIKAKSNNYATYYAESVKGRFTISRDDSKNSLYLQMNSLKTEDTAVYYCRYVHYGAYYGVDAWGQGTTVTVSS VL: DIVMTQSPLSLPVTPGEPASISCRSSQSLVHSNRNTYLHWYQQKPGQAPRLLIYKVSNRFSGVPDRFSGSGSGTDFTLKISRVEAEDVGVYYCGQGDQVPYTFGQGTKLEIK , please.
A. 0.18
